# TESTED ON: recombinant human SAE enzyme (Homo sapiens (Human))
# ASSAY PROCEDURE: SAE HTRF enzyme assay
# Format: biochemical
# TEST CONDITIONS: SAE inhibition at compound concentration 0.111 μM
Recorded Percent Inhibition by entry
MEASUREMENT LABEL: Percent Inhibition (%)

• NS(=O)(=O)OC[C@H]1C[C@@H](Nc2ncncc2C(=O)c2cc([C@@H]3OCC(F)(F)c4ccccc43)cs2)C[C@@H]1O (single isomer, unassigned) [I-293b] = 98
• Cc1sc(C(=O)c2cncnc2N[C@@H]2C[C@H](COS(N)(=O)=O)[C@@H](O)C2)cc1C1OCCc2oc(Cl)cc21 (single isomer, unassigned) [I-298b] = 98
• Cc1cnn2c1[C@H](c1csc(C(=O)c3cncnc3N[C@@H]3C[C@H](COS(N)(=O)=O)[C@@H](O)C3)c1)OCC2 (mixture of isomers) = 15

---

Below, each of the molecules is paired with its reported IC50 value.
# TESTED ON: recombinant human SAE enzyme (Homo sapiens (Human))
# ASSAY PROCEDURE: SAE HTRF enzyme assay
# Assay type: biochemical
# TEST CONDITIONS: SAE inhibition; class symbols, legend in nM
MEASUREMENT LABEL: IC50

- Cc1sc(C(=O)c2cncnc2N[C@@H]2C[C@H](COS(N)(=O)=O)[C@@H](O)C2)cc1[C@@H]1OCCn2c(C)cnc21 (mixture of isomers) [I-296]: < 10 nM
- NS(=O)(=O)OCC1CC(Nc2ncncc2C(=O)c2cc(C3OCCc4ccc(Cl)cc43)c(Cl)s2)CC1O (mixture of isomers) [I-282]: < 10 nM
- Cc1nc2c(s1)CCO[C@H]2c1cc(C(=O)c2cncnc2N[C@@H]2C[C@H](COS(N)(=O)=O)[C@@H](O)C2)sc1C (mixture of isomers) [I-287]: < 10 nM
- NS(=O)(=O)OC[C@H]1C[C@@H](Nc2ncncc2C(=O)c2cc([C@@H]3OCCCc4ccc(Cl)cc43)cs2)C[C@@H]1O (single isomer, unassigned) [I-314b]: < 10 nM
- Cc1sc(C(=O)c2cncnc2N[C@@H]2C[C@H](COS(N)(=O)=O)[C@@H](O)C2)cc1[C@H]1NCCc2ccccc21 (single isomer, unassigned) [I-292a]: < 10 nM
- CC(C)(C)OC(=O)N1CCc2ccc(Cl)cc2[C@@H]1c1cc(C(=O)c2cncnc2N[C@@H]2C[C@H](COS(N)(=O)=O)[C@@H](O)C2)sc1Cl.CC(C)(C)OC(=O)N1CCc2ccc(Cl)cc2[C@H]1c1cc(C(=O)c2cncnc2N[C@@H]2C[C@H](COS(N)(=O)=O)[C@@H](O)C2)sc1Cl (mixture of isomers) [I-336]: 100 to 1000 nM

---

# TESTED ON: recombinant human SAE enzyme (Homo sapiens (Human), UniProt Q9UBT2)
# Sequence (Q9UBT2 whole entry): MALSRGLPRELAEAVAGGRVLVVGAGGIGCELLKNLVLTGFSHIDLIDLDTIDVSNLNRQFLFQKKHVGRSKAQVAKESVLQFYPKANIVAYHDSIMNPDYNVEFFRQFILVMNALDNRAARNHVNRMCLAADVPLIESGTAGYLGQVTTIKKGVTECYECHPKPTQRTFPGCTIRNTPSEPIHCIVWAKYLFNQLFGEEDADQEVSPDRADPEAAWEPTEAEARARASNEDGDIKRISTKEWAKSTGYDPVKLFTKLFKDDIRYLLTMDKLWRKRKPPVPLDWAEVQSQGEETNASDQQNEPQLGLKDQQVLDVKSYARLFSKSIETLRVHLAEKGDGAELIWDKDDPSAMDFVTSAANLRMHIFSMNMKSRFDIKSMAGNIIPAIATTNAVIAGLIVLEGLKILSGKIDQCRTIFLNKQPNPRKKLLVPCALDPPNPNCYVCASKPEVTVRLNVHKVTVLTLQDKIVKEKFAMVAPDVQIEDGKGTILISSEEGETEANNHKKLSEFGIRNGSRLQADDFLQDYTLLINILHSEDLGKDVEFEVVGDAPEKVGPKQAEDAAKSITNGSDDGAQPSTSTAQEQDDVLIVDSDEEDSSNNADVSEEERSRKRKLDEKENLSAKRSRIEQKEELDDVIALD
# Sequence (Q9UBE0 whole entry partner): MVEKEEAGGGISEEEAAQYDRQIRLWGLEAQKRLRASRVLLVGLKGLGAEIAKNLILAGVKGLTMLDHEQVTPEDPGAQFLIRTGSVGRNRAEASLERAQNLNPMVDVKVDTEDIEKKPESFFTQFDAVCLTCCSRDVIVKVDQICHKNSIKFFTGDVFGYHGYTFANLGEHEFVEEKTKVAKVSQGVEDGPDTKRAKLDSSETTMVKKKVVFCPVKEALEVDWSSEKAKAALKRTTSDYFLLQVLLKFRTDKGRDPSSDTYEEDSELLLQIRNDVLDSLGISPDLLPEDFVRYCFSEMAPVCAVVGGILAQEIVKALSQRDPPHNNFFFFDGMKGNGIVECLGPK
# ASSAY PROCEDURE: SAE HTRF enzyme assay
# Format: biochemical
# TEST CONDITIONS: Concentration 0.111 μM
# Protocol: Example 215: SAE HTRF enzyme assay The SAE enzymatic reaction totals 50 μl and contains 50 mM HEPES Hemisodium (pH 7.5), 0.05% BSA, 5 mM MgCl2, 0.5 μM ATP, 250 μM GSH, 0.01 μM Ubc9-GST, 0.125 μM Sumo-Flag and 0.11 nM recombinant human SAE enzyme. […] After incubation for 2 hours at 24° C., quantification of FRET is performed on the Pherostar™ (BMG Labtech). Percentage inhibition values at a single concentration or enzyme inhibition (IC50) values are determined from those curves. […]
Below, each of the molecules is paired with its reported Percent Inhibition value.
MEASUREMENT LABEL: Percent Inhibition

* NS(=O)(=O)OC[C@H]1C[C@@H](Nc2ncncc2C(=O)c2cc([C@@H]3NCc4ccc(Cl)cc43)c(Cl)s2)C[C@@H]1O (mixture of isomers) [I-262] | 100
* NS(=O)(=O)OC[C@H]1C[C@@H](Nc2ncncc2C(=O)c2cc([C@@]3(c4cccc(Cl)c4)CCCS3)cs2)C[C@@H]1O (mixture of isomers) [I-209] | 45
* N[C@H](c1cccc(Br)c1)c1cc(C(=O)c2cncnc2N[C@@H]2C[C@H](COS(N)(=O)=O)[C@@H](O)[C@H]2O)sc1Cl (single isomer, unassigned) [I-24b] | 101
* NC(c1cccc(Br)n1)c1cc(C(=O)c2cncnc2NC2CC(O)C(COS(N)(=O)=O)C2)sc1Cl (mixture of isomers) [I-18] | 99
* Cc1sc(C(=O)c2cncnc2N[C@@H]2C[C@H](COS(N)(=O)=O)[C@@H](O)C2)cc1[C@@H]1OCCc2ccc(C(F)(F)F)cc21 (single isomer, unassigned) [I-258b] | 72
* Cc1sc(C(=O)c2cncnc2N[C@@H]2C[C@H](COS(N)(=O)=O)[C@@H](O)[C@@H]2F)cc1[C@H]1OCCc2ccc(Cl)cc21 (mixture of isomers) [I-264] | 100

---

# TESTED ON: recombinant human SAE enzyme (Homo sapiens (Human), UniProt Q9UBT2)
# ASSAY PROCEDURE: SAE HTRF enzyme assay
# Format: biochemical
# TEST CONDITIONS: class symbols A/B/C
# Description: Example 215: SAE HTRF enzyme assay The SAE enzymatic reaction totals 50 μl and contains 50 mM HEPES Hemisodium (pH 7.5), 0.05% BSA, 5 mM MgCl2, 0.5 μM ATP, 250 μM GSH, 0.01 μM Ubc9-GST, 0.125 μM Sumo-Flag and 0.11 nM recombinant human SAE enzyme. […] After incubation for 2 hours at 24° C., quantification of FRET is performed on the Pherostar™ (BMG Labtech). Percentage inhibition values at a single concentration or enzyme inhibition (IC50) values are determined from those curves. […]
# IC50 values compiled below
MEASUREMENT LABEL: IC50

• NS(=O)(=O)OC[C@H]1C[C@@H](Nc2ncncc2C(=O)c2cc([C@@H]3NCCc4ccc(Cl)cc43)cs2)C[C@@H]1O (mixture of isomers) = < 10 nM
• NS(=O)(=O)OC[C@H]1C[C@@H](Nc2ncncc2C(=O)c2cc(Cc3cccc(Cl)c3F)cs2)C[C@@H]1O = < 10 nM
• Cc1oc(C(=O)c2cncnc2N[C@@H]2C[C@H](COS(N)(=O)=O)[C@@H](O)C2)cc1[C@@H]1OCCc2ccc(Cl)cc21 (single isomer, unassigned) [I-270a] = 10 to 100 nM
• Cc1sc(C(=O)c2cncnc2N[C@@H]2C[C@H](COS(N)(=O)=O)[C@@H](O)C2)cc1[C@@H]1OCCc2ccc(C(F)(F)F)cc21 (mixture of isomers) [I-258] = < 10 nM
• CN[C@@H](c1cccc(Cl)c1)c1cc(C(=O)c2cncnc2N[C@@H]2C[C@H](COS(N)(=O)=O)[C@@H](O)C2)sc1Cl.CN[C@H](c1cccc(Cl)c1)c1cc(C(=O)c2cncnc2N[C@@H]2C[C@H](COS(N)(=O)=O)[C@@H](O)C2)sc1Cl (mixture of isomers) = < 10 nM

---

# TESTED ON: recombinant human SAE enzyme (Homo sapiens (Human))
# ASSAY PROCEDURE: SAE HTRF enzyme assay
# Type: biochemical
# TEST CONDITIONS: Concentration 0.111 μM
# Percent Inhibition per entry
MEASUREMENT LABEL: Percent Inhibition

* Cc1sc(C(=O)c2cncnc2N[C@@H]2C[C@H](COS(N)(=O)=O)[C@@H](O)[C@H]2O)cc1[C@@H]1OCCc2ccccc21 (single isomer, unassigned) [I-250a] | 97
* NS(=O)(=O)OCC1CC(Nc2ncncc2C(=O)c2cc(C(O)c3cccc(Cl)c3)c(CO)s2)CC1O (mixture of isomers) | 100
* Cc1sc(C(=O)c2cncnc2N[C@@H]2C[C@H](COS(N)(=O)=O)[C@@H](O)C2)cc1[C@@H]1OCCc2ccsc21 (single isomer, unassigned) [I-269a] | 101

---

# TESTED ON: recombinant human SAE enzyme (Homo sapiens (Human), UniProt Q9UBT2)
# ASSAY PROCEDURE: SAE HTRF enzyme assay
# Assay type: biochemical
# TEST CONDITIONS: class symbols A/B/C
pIC50: −log10 of the molar value.
MEASUREMENT LABEL: pIC50

* NS(=O)(=O)OC[C@H]1C[C@@H](Nc2ncncc2C(=O)c2cc(Cn3ccc4cccnc43)cs2)C[C@@H]1O [I-92] | > 8.00
* NS(=O)(=O)OC[C@H]1C[C@@H](Nc2ncncc2C(=O)c2cc(Cc3ccccc3)cs2)C[C@@H]1O [I-88] | > 8.00
* NS(=O)(=O)OC[C@H]1C[C@@H](Nc2ncncc2C(=O)c2cc(CO)c(Cl)s2)C[C@@H]1O [I-211] | 6.00 to 7.00
* NS(=O)(=O)OC[C@H]1C[C@@H](Nc2ncncc2C(=O)c2cc(CN3CCc4ccc(Cl)cc43)cs2)C[C@@H]1O [I-83] | > 8.00
* NS(=O)(=O)OC[C@H]1C[C@@H](Nc2ncncc2C(=O)c2ccc(Cc3cccc(Cl)c3)s2)[C@@H](F)[C@@H]1O [I-205] | 6.00 to 7.00
* NS(=O)(=O)OC[C@H]1C[C@@H](Nc2ncncc2C(=O)c2cc(COc3cccc(Cl)c3)cs2)C[C@@H]1O [I-120] | > 8.00
* NS(=O)(=O)OC[C@H]1C[C@@H](Nc2ncncc2C(=O)c2cc(CN3CC=CCC3)cs2)C[C@@H]1O [I-204] | 7.00 to 8.00
* CO[C@H](c1cccc(Cl)c1)c1cc(C(=O)c2cncnc2N[C@@H]2C[C@H](COS(N)(=O)=O)[C@@H](O)C2)sc1Cl (mixture of isomers) [I-90] | > 8.00
* Cc1sc(C(=O)c2cncnc2N[C@@H]2C[C@H](COS(N)(=O)=O)[C@@H](O)C2)cc1[C@H]1NCCc2ccc(Br)cc21 (single isomer, unassigned) [I-248b] | > 8.00
* NS(=O)(=O)OC[C@H]1C[C@@H](Nc2ncncc2C(=O)c2cc(C3(c4cccc(Cl)c4)CCCO3)cs2)C[C@@H]1O (single isomer, unassigned) [I-20b] | > 8.00
* NS(=O)(=O)OC[C@H]1C[C@@H](Nc2ncncc2C(=O)c2cc(Cn3ccc4ccncc43)cs2)C[C@@H]1O [I-186] | 7.00 to 8.00
* NS(=O)(=O)OC[C@H]1C[C@@H](Nc2ncncc2C(=O)c2cc([C@@]3(c4cccc(Cl)c4)CCCN3)cs2)C[C@@H]1O (mixture of isomers) [I-38] | > 8.00
* NS(=O)(=O)OC[C@H]1C[C@@H](Nc2ncncc2C(=O)c2cc(Cc3ccc(Cl)o3)cs2)C[C@@H]1O [I-66] | > 8.00
* C[C@](N)(c1cccc(Br)c1)c1csc(C(=O)c2cncnc2N[C@@H]2C[C@H](COS(N)(=O)=O)[C@@H](O)[C@H]2O)c1 (single isomer, unassigned) [I-27b] | > 8.00
* C[C@](N)(c1cccc(Br)c1)c1csc(C(=O)c2cncnc2N[C@@H]2C[C@H](COS(N)(=O)=O)[C@@H](O)[C@H]2O)c1 (single isomer, unassigned) [I-27a] | > 8.00
* C[C@@](O)(c1cccc(Br)c1)c1csc(C(=O)c2cncnc2N[C@@H]2C[C@H](COS(N)(=O)=O)[C@@H](O)C2)c1.C[C@](O)(c1cccc(Br)c1)c1csc(C(=O)c2cncnc2N[C@@H]2C[C@H](COS(N)(=O)=O)[C@@H](O)C2)c1 (mixture of isomers) [I-3] | > 8.00
* Cc1ccccc1OCc1csc(C(=O)c2cncnc2N[C@@H]2C[C@H](COS(N)(=O)=O)[C@@H](O)C2)c1 [I-131] | > 8.00
* Cc1sc(C(=O)c2cncnc2N[C@@H]2C[C@H](COS(N)(=O)=O)[C@@H](O)C2)cc1[C@@H]1OCCc2ccc(C3CC3)cc21 (single isomer, unassigned) [I-277a] | > 8.00
* C[C@](O)(c1cccc(Cl)c1)c1coc(C(=O)c2cncnc2N[C@@H]2C[C@H](COS(N)(=O)=O)[C@@H](O)C2)c1 (single isomer, unassigned) [I-30b] | 7.00 to 8.00
* NS(=O)(=O)OC[C@H]1C[C@@H](Nc2ncncc2C(=O)c2cc([C@@H]3NCc4ccc(Cl)cc43)c(Cl)s2)C[C@@H]1O (mixture of isomers) [I-262] | > 8.00
* COc1ccccc1CCc1csc(C(=O)c2cncnc2N[C@@H]2C[C@H](COS(N)(=O)=O)[C@@H](O)C2)c1 [I-183] | 7.00 to 8.00
* Cc1sc(C(=O)c2cncnc2N[C@@H]2C[C@H](COS(N)(=O)=O)[C@@H](O)[C@H]2O)cc1[C@@H]1NCCc2ccc(Br)cc21 (single isomer, unassigned) [I-247b] | > 8.00
* Cc1sc(C(=O)c2cncnc2N[C@@H]2C[C@H](COS(N)(=O)=O)[C@@H](O)C2)cc1CN1CCc2cccnc21 [I-171] | 7.00 to 8.00
* Cc1sc(C(=O)c2cncnc2N[C@@H]2C[C@H](COS(N)(=O)=O)[C@@H](O)C2)cc1[C@@H]1OCCc2ccsc21 (single isomer, unassigned) [I-269a] | > 8.00
